Cited source for all entries: patent US6376497B1

System: Candida tropicalis A. 13803
Experiment: In vitro antifungal activity, microbroth dilution MIC
Assay type: cell-based
Conditions: RPMI-1640, 35° C., 4 to 48 hours, no growth observed
Reported Minimal inhibitory concentration(MIC), C. tropicalis A. 13803 values follow for various molecules
Entry rule: numbers only, all in µg/mL.

Inquiry: Could you please provide reported Minimal inhibitory concentration(MIC), C. tropicalis A. 13803 for FC(Oc1ccc(OCC2COC(Cn3cncn3)(c3ccc(Cl)cc3Cl)O2)cc1)=C(c1ccc(F)cc1)C(F)(F)F (mixture of isomers) ? Thanks!
Reply text: 100

Inquiry: Could you please provide reported Minimal inhibitory concentration(MIC), C. tropicalis A. 13803 for FC(=Cc1ccc(Cl)cc1)OCC1COC(Cn2cncn2)(c2ccc(Cl)cc2Cl)O1 (mixture of isomers) ? Thanks!
Reply text: 25.0

Lab note: next molecule to report on.
Inquiry: Could you please provide reported Minimal inhibitory concentration(MIC), C. tropicalis A. 13803 for FC(Oc1ccc(OCC2COC(Cn3ccnc3)(c3ccc(F)cc3F)O2)cc1)=C(c1cccc(F)c1)C(F)(F)F (mixture of isomers) ? Thanks!
Reply text: 100

====

System: Aspergillus furnigatus B. 19119
Experiment: In vitro antifungal activity, microbroth dilution MIC
Format: cell-based
Settings: A furnigatus B. 19119, RPMI-1640, 35° C., 4 to 48 hours
From the text: […]
Reported Minimal inhibitory concentration (MIC) values follow for various compounds

Consider the following illustrative entries.
Inquiry: // fetch Minimal inhibitory concentration (MIC) for CCOc1ccc(C=C(F)OCC2COC(Cn3ccnc3)(c3ccc(F)cc3F)O2)cc1 (mixture of isomers) ; system: Aspergillus furnigatus B. 19119
Reply text: 12.5 µg/mL

Inquiry: // fetch Minimal inhibitory concentration (MIC) for Cc1ccc(C=C(F)OCC2COC(Cn3ccnc3)(c3ccc(Cl)cc3Cl)O2)cc1 (centres unmarked) ; system: Aspergillus furnigatus B. 19119
Reply text: 3.13 µg/mL

Inquiry: // fetch Minimal inhibitory concentration (MIC) for COc1ccc(C(=C(F)OCC2COC(Cn3ccnc3)(c3ccc(F)cc3F)O2)C(F)(F)F)cc1 (mixture of isomers) ; system: Aspergillus furnigatus B. 19119
Reply text: 12.5 µg/mL

Inquiry: // fetch Minimal inhibitory concentration (MIC) for CC(C)Oc1cccc(C=C(F)OCC2COC(Cn3ccnc3)(c3ccc(F)cc3F)O2)c1 (mixture of isomers) ; system: Aspergillus furnigatus B. 19119
Reply text: 12.5 µg/mL

Lab note: next compound to report on.
Inquiry: // fetch Minimal inhibitory concentration (MIC) for FC(OCC1COC(Cn2ccnc2)(c2ccc(F)cc2F)O1)=C(c1cccc(C(F)(F)F)c1)C(F)(F)F (mixture of isomers) ; system: Aspergillus furnigatus B. 19119
Reply text: 25.0 µg/mL

====

Tested on: Cryptococcus neoformans IFM. 40092
Test: In vitro antifungal activity, microbroth dilution MIC
Format: cell-based
Details: Cry. neoformans IFM. 40092, RPMI-1640, 35° C., 4 to 48 hours
PARAMETER MEASURED: Minimal inhibitory concentration (MIC)

Inquiry: Could you please provide reported Minimal inhibitory concentration (MIC) for CCOc1ccc(C=C(F)OCC2COC(Cn3ccnc3)(c3ccc(Cl)cc3Cl)O2)cc1 (stereo not drawn) [Ex. 10] ? Thanks!
Reply text: ≦0.10 μg/ml

Inquiry: Could you please provide reported Minimal inhibitory concentration (MIC) for FC(=Cc1ccc(Cl)cc1)OCC1COC(Cn2ccnc2)(c2ccc(F)cc2F)O1 (mixture of isomers) [Ex. 47] ? Thanks!
Reply text: ≦0.10 μg/ml

Inquiry: Could you please provide reported Minimal inhibitory concentration (MIC) for Cc1cc(C)c(C=C(F)OCC2COC(Cn3ccnc3)(c3ccc(F)cc3F)O2)cc1C (mixture of isomers) [Ex. 42] ? Thanks!
Reply text: ≦0.10 μg/ml

====

Reported Minimal inhibitory concentration(MIC), C. albicans IFO. 1385 values follow for various compounds
Tested on: Candida albicans IFO. 1385
Test: In vitro antifungal activity, microbroth dilution MIC
Assay type: cell-based
Conditions: RPMI-1640, 35° C., 4 to 48 hours, no growth observed
Entry rule: numbers only, all in µg/mL.

Consider the following illustrative entries.
Inquiry: Could you please provide reported Minimal inhibitory concentration(MIC), C. albicans IFO. 1385 for Cc1cccc(C(=C(F)OCC2COC(Cn3cncn3)(c3ccc(Cl)cc3Cl)O2)C(F)(F)F)c1 (mixture of isomers) [Ex. 80] ? Thanks!
Reply text: 12.5

Inquiry: Could you please provide reported Minimal inhibitory concentration(MIC), C. albicans IFO. 1385 for FC(Oc1ccc(OCC2COC(Cn3ccnc3)(c3ccc(Cl)cc3Cl)O2)cc1)=C(c1ccc(Cl)cc1)C(F)(F)F (mixture of isomers) [Ex. 102] ? Thanks!
Reply text: 6.25

Inquiry: Could you please provide reported Minimal inhibitory concentration(MIC), C. albicans IFO. 1385 for COc1ccc(C=C(F)Oc2ccc(OCC3COC(Cn4ccnc4)(c4ccc(F)cc4F)O3)cc2)cc1 (mixture of isomers) [Ex. 105] ? Thanks!
Reply text: 6.25

Inquiry: Could you please provide reported Minimal inhibitory concentration(MIC), C. albicans IFO. 1385 for FC(=C(c1ccc(C(F)(F)F)cc1)C(F)(F)F)N1CCN(c2ccc(OCC3COC(Cn4ccnc4)(c4ccc(F)cc4F)O3)cc2)CC1 (mixture of isomers) [Ex. 142] ? Thanks!
Reply text: 3.13

Lab note: next compound to report on.
Inquiry: Could you please provide reported Minimal inhibitory concentration(MIC), C. albicans IFO. 1385 for COc1ccc(C(=C(F)Oc2ccc(OCC3COC(Cn4ccnc4)(c4ccc(Cl)cc4Cl)O3)cc2)C(F)(F)F)cc1 (mixture of isomers) [Ex. 98] ? Thanks!
Reply text: 3.13

====

Test system: Candida albicans A. 10231
Assay: In vitro antifungal activity, microbroth dilution MIC
Format: cell-based
Conditions: C. albicans A. 10231, RPMI-1640, 35° C., 4 to 48 hours
Reported Minimal inhibitory concentration (MIC) values follow for various molecules
Entry rule: numbers only, all in µg/mL.

Consider the following illustrative entries.
Inquiry: Could you please provide reported Minimal inhibitory concentration (MIC) for Cc1ccc(C=C(F)OCC2COC(Cn3cncn3)(c3ccc(Cl)cc3Cl)O2)cc1 (mixture of isomers) ? Thanks!
Reply text: 50.0

Inquiry: Could you please provide reported Minimal inhibitory concentration (MIC) for FC(=Cc1cccc2ccccc12)OCC1COC(Cn2ccnc2)(c2ccc(F)cc2F)O1 (mixture of isomers) ? Thanks!
Reply text: 12.5

Inquiry: Could you please provide reported Minimal inhibitory concentration (MIC) for FC(=Cc1ccc(F)cc1)OCC1COC(Cn2cncn2)(c2ccc(Cl)cc2Cl)O1 (mixture of isomers) ? Thanks!
Reply text: 100

Inquiry: Could you please provide reported Minimal inhibitory concentration (MIC) for FC(=Cc1ccc2c(c1)OCO2)OCC1COC(Cn2cncn2)(c2ccc(Cl)cc2Cl)O1 (mixture of isomers) ? Thanks!
Reply text: 100

More entries:
Inquiry: Could you please provide reported Minimal inhibitory concentration (MIC) for FC(=Cc1cccc(Cl)c1)OCC1COC(Cn2ccnc2)(c2ccc(Cl)cc2Cl)O1 (stereo not drawn) ? Thanks!
Reply text: 6.25

Inquiry: Could you please provide reported Minimal inhibitory concentration (MIC) for COc1cccc(C=C(F)OCC2COC(Cn3ccnc3)(c3ccc(Cl)cc3Cl)O2)c1 (stereo not drawn) ? Thanks!
Reply text: 12.5

====

Reported Minimal inhibitory concentration(MIC), C. albicans IFO. 1385 values follow for various compounds
System: Candida albicans IFO. 1385
Test: In vitro antifungal activity, microbroth dilution MIC
Format: cell-based
Conditions: RPMI-1640, 35° C., 4 to 48 hours, no growth observed
Entry rule: numbers only, all in µg/mL.

Inquiry: Could you please provide reported Minimal inhibitory concentration(MIC), C. albicans IFO. 1385 for CCCCc1ccc(C(=C(F)N2CCN(c3ccc(OCC4COC(Cn5ccnc5)(c5ccc(F)cc5F)O4)cc3)CC2)C(F)(F)F)cc1 (mixture of isomers) [Ex. 140] ? Thanks!
Reply text: 1.56

Inquiry: Could you please provide reported Minimal inhibitory concentration(MIC), C. albicans IFO. 1385 for COc1ccc(C=C(F)Oc2ccc(OCC3COC(Cn4cncn4)(c4ccc(Cl)cc4Cl)O3)cc2)cc1 (mixture of isomers) [Ex. 118] ? Thanks!
Reply text: 1.56

More entries:
Inquiry: Could you please provide reported Minimal inhibitory concentration(MIC), C. albicans IFO. 1385 for FC(=C(c1cccc(F)c1)C(F)(F)F)N1CCN(c2ccc(OCC3COC(Cn4ccnc4)(c4ccc(F)cc4F)O3)cc2)CC1 (mixture of isomers) [Ex. 147] ? Thanks!
Reply text: 0.78

Inquiry: Could you please provide reported Minimal inhibitory concentration(MIC), C. albicans IFO. 1385 for FC(=C(c1ccccc1)C(F)(F)F)N1CCN(c2ccc(OCC3COC(Cn4ccnc4)(c4ccc(F)cc4F)O3)cc2)CC1 (mixture of isomers) [Ex. 138] ? Thanks!
Reply text: 0.78

Inquiry: Could you please provide reported Minimal inhibitory concentration(MIC), C. albicans IFO. 1385 for FC(=C(c1ccc(F)cc1)C(F)(F)F)N1CCN(c2ccc(OCC3COC(Cn4ccnc4)(c4ccc(F)cc4F)O3)cc2)CC1 (mixture of isomers) [Ex. 148] ? Thanks!
Reply text: 0.39

Inquiry: Could you please provide reported Minimal inhibitory concentration(MIC), C. albicans IFO. 1385 for FC(=C(c1ccc(Oc2ccccc2)cc1)C(F)(F)F)N1CCN(c2ccc(OCC3COC(Cn4ccnc4)(c4ccc(F)cc4F)O3)cc2)CC1 (mixture of isomers) [Ex. 146] ? Thanks!
Reply text: 0.78

Inquiry: Could you please provide reported Minimal inhibitory concentration(MIC), C. albicans IFO. 1385 for FC(Oc1ccc(OCC2COC(Cn3ccnc3)(c3ccc(Cl)cc3Cl)O2)cc1)=C(c1cc(Cl)cc(Cl)c1)C(F)(F)F (mixture of isomers) [Ex. 104] ? Thanks!
Reply text: 3.13

Inquiry: Could you please provide reported Minimal inhibitory concentration(MIC), C. albicans IFO. 1385 for FC(=C(c1ccc(Cl)cc1)C(F)(F)F)N1CCN(c2ccc(OCC3COC(Cn4ccnc4)(c4ccc(Cl)cc4Cl)O3)cc2)CC1 (mixture of isomers) [Ex. 134] ? Thanks!
Reply text: 1.56

Inquiry: Could you please provide reported Minimal inhibitory concentration(MIC), C. albicans IFO. 1385 for Cc1ccc(C(=C(F)N2CCN(c3ccc(OCC4COC(Cn5ccnc5)(c5ccc(Cl)cc5Cl)O4)cc3)CC2)C(F)(F)F)cc1C (mixture of isomers) [Ex. 129] ? Thanks!
Reply text: 3.13
